Target: T1, cynomolgus MCSP D3 (cynomolgus, UniProt Q6UVK1 1582-2224 (human entry))
T1 construct: also called cynomolgus homologue; not shown: C-terminal tag
T1 chain: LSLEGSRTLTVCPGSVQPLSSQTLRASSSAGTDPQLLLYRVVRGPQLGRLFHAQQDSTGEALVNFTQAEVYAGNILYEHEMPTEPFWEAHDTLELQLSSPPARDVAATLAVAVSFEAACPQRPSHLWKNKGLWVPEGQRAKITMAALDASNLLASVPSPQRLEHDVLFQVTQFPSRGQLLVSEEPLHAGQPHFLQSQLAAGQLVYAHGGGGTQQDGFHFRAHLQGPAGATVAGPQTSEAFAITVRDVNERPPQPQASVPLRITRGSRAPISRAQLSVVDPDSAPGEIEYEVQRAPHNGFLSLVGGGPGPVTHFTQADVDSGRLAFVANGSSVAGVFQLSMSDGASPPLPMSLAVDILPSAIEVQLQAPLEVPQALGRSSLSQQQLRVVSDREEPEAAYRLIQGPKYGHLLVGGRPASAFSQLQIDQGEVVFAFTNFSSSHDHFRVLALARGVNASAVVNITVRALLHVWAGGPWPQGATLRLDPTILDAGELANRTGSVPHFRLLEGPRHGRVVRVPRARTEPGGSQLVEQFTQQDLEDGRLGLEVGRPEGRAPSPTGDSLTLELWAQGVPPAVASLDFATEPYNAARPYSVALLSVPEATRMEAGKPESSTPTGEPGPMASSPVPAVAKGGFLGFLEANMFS
Method description: SPR (ProteOn XPR36), IgG KD against parental M4-3/ML2
I'd appreciate it if you could supply Comparative binding affinity - Fold increase over parent values for the items below.
One number for each entry, in fold.

[[record]]
binder = "M4-3(A7)/ML2(E10) (IgG) (antibody, V domains shown, Human IgG1 format) VH: QVQLQESGPGLVKPSQTLSLTCTVSGGSITDGYYWNWIRQHPGKGLEWIGYITFDGRNNYNPSLKSRVTISRDTSKNQFSLKLSSVTAADTAVYYCADFDYWGQGTLVTVSS VL: DIQMTQSPSSLSASVGDRVTITCRASYGIRGYLNWYQQKPGKAPKLLIYYTSSLHSGVPSRFSGSGSGTDFTLTISSLQPEDFATYHCQQYSKLPWTFGQGTKVEIK"
units_of_measure = "fold"
test_result = 2.9

[[record]]
binder = "M4-3(B7)/ML2 (IgG) (antibody, V domains shown, Human IgG1 format) VH: QVQLQESGPGLVKPSQTLSLTCTVSGGSITSGYYWNWIRQHPGKGLEWIGYITFDGINNYNPSLKSRVTISRDTSKNQFSLKLSSVTAADTAVYYCADFDYWGQGTLVTVSS VL: DIQMTQSPSSLSASVGDRVTITCRASQGIRNYLNWYQQKPGKAPKLLIYYTSSLHSGVPSRFSGSGSGTDFTLTISSLQPEDFATYYCQQYSKLPWTFGQGTKVEIK"
units_of_measure = "fold"
test_result = 2.9

[[record]]
binder = "M4-3(C1)/ML2(C5) (IgG) (antibody, V domains shown, Human IgG1 format) VH: QVQLQESGPGLVKPSQTLSLTCTVSGGSITSGYYWNWIRQHPGKGLEWIGYITFDGSNNYNPSLKSRVTISRDTSKNQFSLKLSSVTAADTAVYYCADFDYWGQGTLVTVSS VL: DIQMTQSPSSLSASVGDRVTITCRASRGIREYLNWYQQKPGKAPKLLIYYTGSLHSGVPSRFSGSGSGTDFTLTISSLQPEDFATYYCQQYSELPWTFGQGTKVEIK"
units_of_measure = "fold"
test_result = 6.7

[[record]]
binder = "M4-3/ML2 (E10) (IgG) (antibody, V domains shown, Human IgG1 format) VH: QVQLQESGPGLVKPSQTLSLTCTVSGGSITSGYYWNWIRQHPGKGLEWIGYITYDGSNNYNPSLKSRVTISRDTSKNQFSLKLSSVTAADTAVYYCADFDYWGQGTLVTVSS VL: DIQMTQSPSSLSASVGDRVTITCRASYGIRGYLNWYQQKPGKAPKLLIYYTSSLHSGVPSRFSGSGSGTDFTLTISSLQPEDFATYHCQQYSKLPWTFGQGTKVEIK"
units_of_measure = "fold"
test_result = 1


Query M4-3(B8)/ML2 (IgG) (antibody, V domains shown, Human IgG1 format) VH: QVQLQESGPGLVKPSQTLSLTCTVSGGSITSGYYWNWIRQHPGKGLEWIGYITFDGRNNYNPSLKSRVTISRDTSKNQFSLKLSSVTAADTAVYYCADFDYWGQGTLVTVSS VL: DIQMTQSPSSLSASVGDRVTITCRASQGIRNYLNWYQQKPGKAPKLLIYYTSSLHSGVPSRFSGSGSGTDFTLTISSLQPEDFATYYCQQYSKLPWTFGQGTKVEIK yields Comparative binding affinity - Fold increase over parent of 2
